Property: ΔTm; scope: individual molecules
tested on: Quadruplex DNA; test: Stabilization of 5'-FAM/3'-TAMRA labelled AR3 G-quadruplex oligonucleotide (unknown origin) assessed as change in melting temperature t1/2 at 1 uM after 16 hrs in presence of 100 mM K+ by FRET assay; format: nucleic-acid assay
Answers without a unit are incomplete; give the number and then its unit.

Look over these answered cases.
CN(C)CCCN1C(=O)c2ccc3c4c(c5[nH]c(=O)c(=O)[nH]c5c(c24)C1=O)C(=O)N(CCCN(C)C)C3=O :: 6 °C
CN1CCN(c2cc3c4c(c(NCCO)cc5c4c2C(=O)N(CCO)C5=O)C(=O)N(CCO)C3=O)CC1 :: 0.4 °C
CN(C)CCCNc1cc2c3c(ccc4c3c1C(=O)N(CCCN(C)C)C4=O)C(=O)N(CCCN(C)C)C2=O :: 13 °C

Qu. Lab note: need ΔTm with Quadruplex DNA for entry CN(C)CCCn1c(=O)c2ccc3c(=O)n(CCCN(C)C)c(=O)c4c5[nH]c6ccccc6[nH]c5c(c1=O)c2c34.Cl.Cl , please look it up.
Ans. 31 °C

---

tested on: CWR22R; test: Synergistic cytotoxicity against human 22Rv1 cells expressing full length androgen receptor H875Y point mutant assessed as ED50 for Enzalutamide at 0.001 to 0.1 uM after 72 hrs by MTS assay; type: functional; settings: 22Rv1, 72 h, read-out: ED50 (the source's name)
measured_quantity: pEC50
Scale for pEC50: -log10 of concentration given in mol/L; no unit attached.

Qu. May I ask what pEC50 has been recorded for CN(C)CCCn1c(=O)c2ccc3c(=O)n(CCCN(C)C)c(=O)c4c5[nH]c6ccccc6[nH]c5c(c1=O)c2c34.Cl.Cl ?
Ans. 6.54

---

Property: IC50; scope: individual compounds
system: PC-3; assay: Cytotoxicity against human PC3 cells assessed as reduction in cell viability after 48 hrs by MTS assay; format: functional, cell-based; conditions: PC-3, 48 h
# number only, unit µM dropped from output

Look over these answered cases.
CN(C)CCCNc1cc2c3c(ccc4c3c1C(=O)N(CCCN(C)C)C4=O)C(=O)N(CCCN(C)C)C2=O :: 6.32
CN(C)CCN1C(=O)c2ccc3c4c(c(C#Cc5ccc(CN(C)C)c(O)c5)cc(c24)C1=O)C(=O)N(CCN(C)C)C3=O :: 0.34
CN(C)CCCN1C(=O)c2ccc3c4c(c(NCCCCNc5cc6c7c(ccc8c7c5C(=O)N(CCCN(C)C)C8=O)C(=O)N(CCCN(C)C)C6=O)cc(c24)C1=O)C(=O)N(CCCN(C)C)C3=O :: 10.1
CN(C)CCN1C(=O)c2ccc3c4c(c(NCCc5ccc(O)c(CN(C)C)c5)cc(c24)C1=O)C(=O)N(CCN(C)C)C3=O :: 0.32

Alright, here's another compound for you.
Qu. May I ask what IC50 has been recorded for CN(C)CCCn1c(=O)c2ccc3c(=O)n(CCCN(C)C)c(=O)c4c5[nH]c6ccccc6[nH]c5c(c1=O)c2c34.Cl.Cl ?
Ans. 0.18

---

tested on: Quadruplex DNA; assay: Stabilization of 5'-FAM/3'-TAMRA labelled AR1 G-quadruplex oligonucleotide (unknown origin) assessed as change in melting temperature t1/2 at 1 uM after 16 hrs in presence of 100 mM K+ by FRET assay; type: nucleic-acid assay
measured_quantity: ΔTm (°C)
# number only, unit °C dropped from output

Look over these answered cases.
CN(C)CCN1C(=O)c2ccc3c4c(c(C#Cc5ccc(CN(C)C)c(O)c5)cc(c24)C1=O)C(=O)N(CCN(C)C)C3=O :: 5.6
CN(C)CCCN1C(=O)c2ccc3c4c(c5[nH]c(=O)c(=O)[nH]c5c(c24)C1=O)C(=O)N(CCCN(C)C)C3=O :: 3.6
CN(C)CCCN1C(=O)c2ccc3c4c(c(NCCCCCCCNc5cc6c7c(ccc8c7c5C(=O)N(CCCN(C)C)C8=O)C(=O)N(CCCN(C)C)C6=O)cc(c24)C1=O)C(=O)N(CCCN(C)C)C3=O :: 8.3
CN(C)CCCn1c(=O)c2ccc3c(=O)n(CCCN(C)C)c(=O)c4c5[nH]c6ccccc6[nH]c5c(c1=O)c2c34.Cl.Cl :: 20.5
CN(C)CCCNc1cc2c3c(ccc4c3c1C(=O)N(CCCN(C)C)C4=O)C(=O)N(CCCN(C)C)C2=O :: 11

Qu. May I ask what ΔTm has been recorded for CN(C)CCCN1C(=O)c2ccc3c4c(c(NCCCCNc5cc6c7c(ccc8c7c5C(=O)N(CCCN(C)C)C8=O)C(=O)N(CCCN(C)C)C6=O)cc(c24)C1=O)C(=O)N(CCCN(C)C)C3=O ?
Ans. 11.3

Qu. May I ask what ΔTm has been recorded for CN1CCN(c2cc3c4c(c(NCCO)cc5c4c2C(=O)N(CCO)C5=O)C(=O)N(CCO)C3=O)CC1 ?
Ans. 0.1

Qu. May I ask what ΔTm has been recorded for CN(C)CCN1C(=O)c2ccc3c4c(c(NCCc5ccc(O)c(CN(C)C)c5)cc(c24)C1=O)C(=O)N(CCN(C)C)C3=O ?
Ans. 7.2

Qu. May I ask what ΔTm has been recorded for CN(C)CCN1C(=O)c2ccc3c4c(c(NCC(=O)Nc5ccc(O)c(CO)c5)cc(c24)C1=O)C(=O)N(CCN(C)C)C3=O ?
Ans. 4.5

The reported numbers originate from ChEMBL document CHEMBL4411261.
